Tested on: MS2 coat protein
Assay: apparent Kd, MS2 coat protein; higher = weaker binding; RNA-MaP array; FMN 200 µM where present
Conditions: ligand present: flavin mononucleotide; designed as: ON switch for flavin mononucleotide
Class yes: apparent Kd at least 10 nM. Class no: apparent Kd below 10 nM.

Exercise: Check the entry `GAGUGGAAGGCCGCUACAUGAGGAUCACCCAUGUGCUAAGCACAGGAUAUCGCGCUGGCCCGGCGCGAGAAGGGUGACGGCCUG` : does apparent Kd equal or exceed 10 nM?
Solution: yes

###

Test system: MS2 coat protein
Assay: apparent Kd, MS2 coat protein; higher = weaker binding; RNA-MaP array; FMN 200 µM where present
Conditions: designed as: OFF switch for flavin mononucleotide; no ligand
Answer each item with its documented apparent Kd.
Answers are plain numbers, in nM.

Value sought for every listed sequence: apparent Kd.
1. UUGGUAUUCGUAGGAUAUCUGUCGCCACCGUGUGGAGAAGGACGAACAUGAGGAUCACCCAUGUAUCAUGGUGUGGGCUUUGUU
2. UAUAUGUCAGGAUAUCGAUUGGAAUGGAAUUUAGUUUUGGUCGAGAAGGGACAUGAGGAUCACCCAUGUUUUUC
3. UACUCAUGUGAGAAGGGACGUAUCUCCAUGAGGGUAGGGCUAUUAGAGAAGUCAGGAUAUCACAUGAGGAUCACCCAUGUGACG
4. AGUUGGCGAGGAUAUACAUGAGGAUCACCCAUGUGAAAUAUAAGAGUGAGGAAGAAAAGUAGAAGGCGCUGACA

Solution:
504
38.7
6.92
99.8

Provide each entry's apparent Kd from the list below.
1. UGAUAGGACAGAGGAUAUACGUGCUAGAGAUACUAGCAAAGUUUCUUGACAUGAGGAUCACCCAUGUAGAAGGCUGUCCUAUCU
2. GGUGCGUAUGUGAGGAUAUGCUGGUCCUUGGAUCGGCAGAAGGCACAUGAGGAUCACCCAUGUGGUGUCGUUCC
3. UAUAUAUAGUAAGGAUAUGUAAUUAUUUCAUAAACAGAAGGUACUGACAUGAGGAUCACCCAUGUUUUAGUGUGGGCAUGUAGA

Solution:
1: 5.74; 2: 120; 3: 79.8
